- assayed-system: ITK (Homo sapiens (Human))
- protocol-notes: ITK kinase assay (radiometric filter binding, 10 μM ATP)
- Format: biochemical
- conditions-used: 10-dose IC50 mode, 10 μM ATP; read-out: ITK kinase inhibition
measured-metric: IC50

In [3]: df
Out[3]:
                                   compound  reported_value
0  N#CCc1cccc(Nc2cnc3[nH]cc(Cl)c3c2)c1 [Example 53]       > 1000 nM
1  COc1c(F)cc(F)cc1-c1c[nH]c2ncc(-c3cccc(NC(=O)/C(C)=C/C(C)(C)C)c3)cc12 [Example 158]        < 100 nM

response.value for CC#CC(=O)Nc1cc(-c2cnc3[nH]cc(C)c3c2)ccc1F [Example 93] (field: IC50) = > 100 nM

response.value for C=CC(=O)Nc1cc(-c2cnc3[nH]cc(-c4cc(F)cc(F)c4OC)c3c2)ccc1Cl [Example 41] (field: IC50) = > 100 nM

====

Documented IC50 across a set of compounds
- assayed-system: JAK3 (Homo sapiens (Human), UniProt P52333)
- Sequence (P52333 whole entry): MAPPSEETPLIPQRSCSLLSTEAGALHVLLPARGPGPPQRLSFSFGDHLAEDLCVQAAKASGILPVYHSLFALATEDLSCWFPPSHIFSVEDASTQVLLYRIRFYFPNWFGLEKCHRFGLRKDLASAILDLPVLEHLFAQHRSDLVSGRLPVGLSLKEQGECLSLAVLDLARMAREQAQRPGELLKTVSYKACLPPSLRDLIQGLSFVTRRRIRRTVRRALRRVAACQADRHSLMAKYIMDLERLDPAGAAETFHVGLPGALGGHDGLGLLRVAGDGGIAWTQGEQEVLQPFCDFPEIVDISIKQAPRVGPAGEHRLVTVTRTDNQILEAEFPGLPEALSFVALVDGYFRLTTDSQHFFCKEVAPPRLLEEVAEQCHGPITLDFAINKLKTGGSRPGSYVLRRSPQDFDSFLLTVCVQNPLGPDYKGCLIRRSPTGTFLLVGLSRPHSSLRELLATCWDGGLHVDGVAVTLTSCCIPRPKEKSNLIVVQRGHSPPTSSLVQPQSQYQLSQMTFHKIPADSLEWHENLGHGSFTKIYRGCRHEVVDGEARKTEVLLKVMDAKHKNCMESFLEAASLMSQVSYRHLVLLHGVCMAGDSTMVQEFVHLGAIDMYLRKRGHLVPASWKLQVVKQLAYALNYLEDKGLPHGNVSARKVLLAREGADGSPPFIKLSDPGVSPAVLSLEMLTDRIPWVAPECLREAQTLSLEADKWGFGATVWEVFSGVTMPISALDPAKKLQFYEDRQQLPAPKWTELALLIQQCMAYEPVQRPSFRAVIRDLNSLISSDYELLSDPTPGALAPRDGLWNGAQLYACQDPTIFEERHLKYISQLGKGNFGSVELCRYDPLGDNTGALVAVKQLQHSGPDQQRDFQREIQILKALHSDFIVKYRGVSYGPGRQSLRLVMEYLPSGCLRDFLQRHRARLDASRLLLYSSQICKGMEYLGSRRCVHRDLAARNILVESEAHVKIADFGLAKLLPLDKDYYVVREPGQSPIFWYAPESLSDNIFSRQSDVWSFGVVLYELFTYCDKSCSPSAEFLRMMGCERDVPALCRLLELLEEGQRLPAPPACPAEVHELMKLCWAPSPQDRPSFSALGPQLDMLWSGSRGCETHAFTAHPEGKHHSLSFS
- protocol-notes: JAK3 kinase assay (radiometric filter binding, 10 μM ATP)
- Assay type: biochemical
- conditions-used: 10-dose IC50 mode, 10 μM ATP; read-out: JAK3 kinase inhibition

>>> df
                                   compound  reported_value
0  C=CC(=O)N1CCCC1C(=O)Nc1cccc(-c2cnc3[nH]cc(Cl)c3c2)c1 (stereo not shown)        > 100 nM
1      C#CC(=O)Nc1cccc(-c2cnc3[nH]ccc3c2)n1        < 100 nM
2  C=CC(=O)Nc1cc(-c2cnc3[nH]nc(C)c3c2)ccc1Cl        > 100 nM
3  Cc1c[nH]c2ncc(-c3cccc(NC(=O)/C=C/CN(C)C)c3)cc12        > 100 nM

Entry N#CCc1cccc(Nc2cnc3[nH]cc(Cl)c3c2)c1 under JAK3 (Homo sapiens (Human), UniProt P52333) had IC50 of > 1000 nM

Entry CC/C=C/C(=O)Nc1cc(-c2cnc3[nH]nc(C)c3c2)ccc1Cl under JAK3 (Homo sapiens (Human), UniProt P52333) had IC50 of > 1000 nM

Entry O=C(Nc1cccc(-c2cnc3[nH]cc(Cl)c3c2)c1)C1CCCN1 (stereo not shown) under JAK3 (Homo sapiens (Human), UniProt P52333) had IC50 of > 100 nM

====

- protocol-notes: Pharmacokinetics in male Sprague Dawley rats
- Type: in vivo
- conditions-used: rat, plasma; PO 20 mg/kg, solution, male Sprague Dawley rats, median (range), n=3
measured-metric: Tmax (min)
Kindly provide the numeric value in min only, without the unit symbol.

response.value for C=CC(=O)Nc1cccc(-c2cnc3[nH]cc(Cl)c3c2)c1 (field: Tmax) = 15

====

- protocol-notes: Pharmacokinetics in male Sprague Dawley rats
- Assay type: in vivo
- conditions-used: rat, plasma; IV 5 mg/kg, solution, male Sprague Dawley rats, mean±SD, n=3; read-out: Vss
measured-metric: Vd (L/kg)
Kindly provide the numeric value in L/kg only, without the unit symbol.

response.value for C=CC(=O)Nc1cccc(-c2cnc3[nH]cc(Cl)c3c2)c1 (field: Vd) = 1.61

====

- assayed-system: ITK (Homo sapiens (Human), UniProt Q08881)
- Sequence (Q08881 whole entry): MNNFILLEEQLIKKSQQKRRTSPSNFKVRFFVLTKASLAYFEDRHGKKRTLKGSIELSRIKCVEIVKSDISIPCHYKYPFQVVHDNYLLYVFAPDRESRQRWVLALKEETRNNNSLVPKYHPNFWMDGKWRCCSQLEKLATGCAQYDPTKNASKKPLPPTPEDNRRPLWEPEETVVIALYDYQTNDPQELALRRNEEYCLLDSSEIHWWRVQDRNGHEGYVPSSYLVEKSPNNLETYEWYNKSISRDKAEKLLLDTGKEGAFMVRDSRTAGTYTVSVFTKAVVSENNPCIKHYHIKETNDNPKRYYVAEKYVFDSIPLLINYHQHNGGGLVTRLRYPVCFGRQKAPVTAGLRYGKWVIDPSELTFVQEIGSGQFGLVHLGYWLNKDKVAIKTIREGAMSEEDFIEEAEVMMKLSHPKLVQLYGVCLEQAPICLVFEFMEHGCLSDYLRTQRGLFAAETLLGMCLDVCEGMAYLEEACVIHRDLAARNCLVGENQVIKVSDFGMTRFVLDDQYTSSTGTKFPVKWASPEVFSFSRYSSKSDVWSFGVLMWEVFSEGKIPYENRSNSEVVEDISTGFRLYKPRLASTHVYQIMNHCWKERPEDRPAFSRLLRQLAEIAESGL
- protocol-notes: ITK kinase assay (radiometric filter binding, 10 μM ATP)
- Type: biochemical
- conditions-used: read-out: biochemical IC50 against ITK
pIC50: −log10 of the molar value.
measured-metric: pIC50

>>> print(df.to_string())
                           chemical_smiles  measured_metric  reported_value
0  C=CC(=O)Nc1cccc(-c2cnc3[nH]cc(C)c3c2)c1            pIC50    6.00 to 7.00

response.value for C=CC(=O)Nc1cccc(-c2cnc3[nH]cc(-c4cc5ccccc5[nH]4)c3n2)c1 (field: pIC50) = 6.00 to 7.00

response.value for C=CC(=O)Nc1cccc(-c2cnc3[nH]cc(-c4cc5ccc(C)cc5[nH]4)c3c2)c1 (field: pIC50) = 6.00 to 7.00

response.value for C=CC(=O)Nc1cccc(-c2cnc3[nH]cc(-c4cc5ccccc5[nH]4)c3c2)c1 (field: pIC50) = 6.00 to 7.00

response.value for C=CC(=O)Nc1cccc(-c2cnc3[nH]cc(Cl)c3c2)c1 (field: pIC50) = 6.00 to 7.00

response.value for C#CC1(C(=O)Nc2cccc(-c3cnc4[nH]cc(Cl)c4c3)c2)CC1 (field: pIC50) = 6.00 to 7.00

====

- assayed-system: ITK (Homo sapiens (Human))
- protocol-notes: ITK kinase assay (radiometric filter binding, 10 μM ATP)
- Format: biochemical
- conditions-used: 10-dose IC50 mode, 10 μM ATP; read-out: ITK kinase inhibition
Documented IC50 across a set of compounds

response.value for C#CC1(C(=O)Nc2cccc(-c3cnc4[nH]cc(Cl)c4c3)c2)CC1 (field: IC50) = > 1 µM

====

- protocol-notes: Pharmacokinetics in male Sprague Dawley rats
- Type: in vivo
- conditions-used: rat, plasma; IV 5 mg/kg, solution, male Sprague Dawley rats, mean±SD, n=3; read-out: Cmax (back extrapolated concentration at time zero)
measured-metric: Cmax (ng/mL)
Kindly provide the numeric value in ng/mL only, without the unit symbol.

response.value for C=CC(=O)Nc1cccc(-c2cnc3[nH]cc(Cl)c3c2)c1 (field: Cmax) = 3850

====

- assayed-system: ITK (Homo sapiens (Human))
- protocol-notes: ITK kinase assay (radiometric filter binding, 10 μM ATP)
- Assay type: biochemical
- conditions-used: 10-dose IC50 mode, 10 μM ATP; read-out: ITK kinase inhibition
Documented IC50 across a set of molecules

Example cases with answers are listed next.
>>> df
                            chemical_smiles  measured_metric  reported_value
0  COc1cc(F)c(C)cc1-c1c[nH]c2ncc(-c3cc(F)cc(NC(=O)/C=C/CN(C)C)c3C)cc12             IC50        < 100 nM
1  C=CC(=O)Nc1cccc(-c2cnc3[nH]cc(-c4cccc(S(=O)(=O)N(C)C(C)(C)C)c4)c3n2)c1             IC50        < 100 nM
2      C=CC(=O)Nc1cccc(-c2cnc3[nH]ccc3c2)n1             IC50        > 100 nM

response.value for C=CC(=O)Nc1cc(-c2cnc3[nH]cc(-c4cc(F)cc(F)c4OC)c3c2)c(F)cc1F (field: IC50) = > 100 nM

====

- protocol-notes: Pharmacokinetics in male Sprague Dawley rats
- Assay type: in vivo
- conditions-used: rat, plasma; IV 5 mg/kg, solution, male Sprague Dawley rats, mean±SD, n=3
measured-metric: half-life (min)
Kindly provide the numeric value in min only, without the unit symbol.

response.value for C=CC(=O)Nc1cccc(-c2cnc3[nH]cc(Cl)c3c2)c1 (field: half-life) = 32.4

====

- assayed-system: ITK (Homo sapiens (Human))
- protocol-notes: ITK kinase assay (radiometric filter binding, 10 μM ATP)
- Assay type: biochemical
- conditions-used: read-out: ITK kinase inhibition
pIC50: −log10 of the molar value.
measured-metric: pIC50

response.value for CC#CC(=O)Nc1cccc(-c2cnc3[nH]cc(-c4cccc(S(=O)(=O)N(C)C(C)(C)C)c4)c3c2)c1 (field: pIC50) = < 7.00

====

Documented IC50 across a set of compounds
- assayed-system: JAK3 (Homo sapiens (Human), UniProt P52333)
- protocol-notes: JAK3 kinase assay (radiometric filter binding, 10 μM ATP)
- Assay type: biochemical
- conditions-used: 10-dose IC50 mode, 10 μM ATP; read-out: JAK3 kinase inhibition

In [3]: df
Out[3]:
                            chemical_smiles  reported_value
0  C=CC(=O)Nc1cccc(-c2cnc3[nH]cc(-c4cccc(S(=O)(=O)N(C)C(C)(C)C)c4)c3n2)c1        < 0.1 µM
1  C=CC(=O)Nc1cccc(-c2cnc3[nH]cc(Cl)c3c2)n1        < 0.1 µM
2  CC#CC(=O)Nc1cccc(-c2cnc3[nH]cc(Cl)c3c2)n1        < 0.1 µM
3  CCC#CC(=O)Nc1cccc(-c2cnc3[nH]cc(-c4cc(F)cc(F)c4OC)c3c2)c1        > 0.1 µM
4  C#CC(=O)Nc1cccc(-c2cnc3[nH]cc(Cl)c3c2)c1        < 0.1 µM

# next compound below
response.value for C=CC(=O)Nc1cccc(-c2cnc3[nH]cc(-c4cc5ccc(C)cc5[nH]4)c3c2)c1 (field: IC50) = < 0.1 µM

====

- protocol-notes: Pharmacokinetics in male Sprague Dawley rats
- Assay type: in vivo
- conditions-used: rat, plasma; IV 5 mg/kg, solution, male Sprague Dawley rats, mean±SD, n=3
measured-metric: AUC(0-inf) (ng·h/mL)
Kindly provide the numeric value in ng·h/mL only, without the unit symbol.

response.value for C=CC(=O)Nc1cccc(-c2cnc3[nH]cc(Cl)c3c2)c1 (field: AUC(0-inf)) = 2620

The reported measurements were obtained from patent US9206188B2.
